Test system: RPMI-8226
Assay: NCI tumour cell line growth inhibition, 48 h
Calls of active or inactive are those of the source. No stated cut-off is given here; in the data, active = GI50 up to about 1.1 µM and inactive = higher.
Attribute measured: GI50

Observe how each entry below is paired with its result.
Compound	Result value
CCCCCN(CCCCC)C(=O)[C@H](CCC(=O)O)NC(=O)c1cc2ccccc2[nH]1	21.8 µM (inactive)
COc1ccc(/C=C2\CN(C)CC3=C2OC(N)=C(C#N)C3c2ccc(OC)cc2)cc1 (stereo not drawn)	9.82 µM (inactive)
CO[C@]12CC(=O)C3(C(C[C@H]4CC5CC[C@H]6C[C@@H](OC(C)=O)CC[C@]6(OC(C)=O)C5C[C@@]43C)C1)C1C[C@H]3[C@@H]4CC[C@H]5C[C@@H](OC(C)=O)CC[C@]5(OC(C)=O)[C@H]4CC[C@]3(C)C12 (stereo partly drawn)	37.2 µM (inactive)
CC(C)(C)OC(=O)/C=C/[C@@H](CCC(=O)/C=C/[C@H](/C=C\CCCC(=O)O)NC1(c2ccccc2)c2ccccc2-c2ccccc21)O[Si](C)(C)C(C)(C)C	10.5 µM (inactive)
Cc1cc(C)c(C(=O)/C(=C/c2ccccc2)c2ccccc2)c(C)c1	37.1 µM (inactive)

IN: Provide value of GI50 for this record tested with RPMI-8226: N#Cc1cnc(N)nc1NCC1(CO)CC(CCc2ccccc2)C1 (stereo not drawn)
OUT: > 100 µM (inactive)

IN: GI50 of N#CC(C#N)=CNC(N)=S on RPMI-8226?
OUT: > 100 µM (inactive)

IN: Param readout = GI50; param system = RPMI-8226; param query = Cc1ccc(NC(=S)NNC(=O)c2cc(-c3ccccc3)nc3ccccc23)cc1 ; response: value
OUT: 4.59 µM (inactive)

* * *

Tested on: NCI/ADR-RES
Assay: NCI tumour cell line growth inhibition, 48 h
Calls of active or inactive are those of the source. Cut-off read from the data, not from the text of the source: active = GI50 up to about 1.1 µM and inactive = higher.
Attribute measured: GI50

> print(dat)
                                   compound         result.value
1  CCCCOC(=O)C(=O)C(CCC(=O)c1ccc(C)cc1)C(=O)C=C(C)C (stereo not given)  > 100 µM (inactive)
2  CCc1nn(CN2CCN(C)CC2)c(=S)n1/N=C\c1ccc(-c2ccc([N+](=O)[O-])cc2)o1   25.9 µM (inactive)
3  O=C(CSc1nc2ccc(Cl)cc2c(=O)n1-c1ccccc1)N/N=C1\C(=O)Nc2ccc(F)cc21   2.65 µM (inactive)
4  CCOC(=O)c1c(-c2cccc3ccccc23)c(C#N)c(=S)n(C2OC(COC(C)=O)C(OC(C)=O)C(OC(C)=O)C2OC(C)=O)c1C (stereo not given)  > 100 µM (inactive)

Consider the record given below.
IN: Fill in: GI50 of CCOC(=O)C1(C(=O)OCC)CN(CC)CN(c2ccccc2)C1 is ___
OUT: 45.6 µM (inactive)

* * *

System: SN12C
Assay: NCI tumour cell line growth inhibition, 48 h
The source made the active and inactive calls. Rule as the data show it: active = GI50 up to about 1.1 µM and inactive = higher.
Would you mind answering with one of these outcomes? active, inactive

IN: Fill in: this test's call for O=C1CC(c2ccccc2)[S+]([O-])c2ccccc2N1 (configuration not stated) is ___
OUT: inactive

IN: Could you check what this test reported for O=C(CC(C(=O)c1ccsc1)c1cccs1)c1ccccc1 (configuration not stated) ?
OUT: inactive

IN: Entry Cc1ccsc1C(=O)C(CC(=O)c1cccs1)c1ccsc1 (configuration not stated) : call = ?
OUT: inactive

IN: Tell me the recorded outcome of this test for CC[C@@]1(O)C(=O)OCc2c1cc1n(c2=O)Cc2cc3c(OC)cccc3nc2-1 .
OUT: active

IN: # lookup: test call for COc1ccc(C(=O)C#Cc2cnc(O)nc2O)cc1
OUT: inactive
